molecular target: 5-hydroxytryptamine receptor 2A (Rattus norvegicus, UniProt P14842)
Sequence (P14842 whole entry): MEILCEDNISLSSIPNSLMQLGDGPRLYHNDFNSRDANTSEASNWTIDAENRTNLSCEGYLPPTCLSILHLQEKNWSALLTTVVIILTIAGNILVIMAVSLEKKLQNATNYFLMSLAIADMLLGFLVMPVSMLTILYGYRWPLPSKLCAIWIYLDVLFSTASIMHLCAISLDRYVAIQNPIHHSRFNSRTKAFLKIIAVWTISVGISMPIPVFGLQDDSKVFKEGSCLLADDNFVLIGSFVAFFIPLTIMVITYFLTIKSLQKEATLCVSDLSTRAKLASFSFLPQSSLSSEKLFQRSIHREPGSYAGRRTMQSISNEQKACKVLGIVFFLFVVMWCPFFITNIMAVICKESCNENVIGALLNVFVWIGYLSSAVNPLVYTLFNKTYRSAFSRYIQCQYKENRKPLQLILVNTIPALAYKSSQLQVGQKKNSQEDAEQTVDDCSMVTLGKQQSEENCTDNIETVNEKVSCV
Could you please mark Satisfied for values of Ki below 0.3 nM and Not satisfied for values at or above it?

Please review the entries below; each comes with its answer.
compound=Cn1cc(CCN)c2c3c(ccc21)OCCC3 class_assignment="Not satisfied"
compound="CC(N)Cc1cn(C)c2ccc3c(c12)CCCO3 (stereo not drawn)" class_assignment=Satisfied
compound="COc1ccc2[nH]cc(CC(C)N)c2c1 (stereo not drawn)" class_assignment="Not satisfied"
compound=COc1cc(C[C@@H](C)N)c(OC)cc1I class_assignment=Satisfied

Quick check: does C[C@@H](N)Cc1c[nH]c2ccc3c(c12)CCCO3 have Ki under 0.3 nM?
Not satisfied

Here's an entry: NCCc1c[nH]c2ccc3c(c12)CCCO3 . Is its Ki below 0.3 nM?
Not satisfied

A record lists C[C@H](N)Cc1c[nH]c2ccc3c(c12)CCCO3 . Is its Ki below 0.3 nM?
Satisfied
